- assayed_system: human CYP11B2 (Homo sapiens, UniProt P19099)
- Construct: mitochondrial fraction
- Sequence (P19099 25-503): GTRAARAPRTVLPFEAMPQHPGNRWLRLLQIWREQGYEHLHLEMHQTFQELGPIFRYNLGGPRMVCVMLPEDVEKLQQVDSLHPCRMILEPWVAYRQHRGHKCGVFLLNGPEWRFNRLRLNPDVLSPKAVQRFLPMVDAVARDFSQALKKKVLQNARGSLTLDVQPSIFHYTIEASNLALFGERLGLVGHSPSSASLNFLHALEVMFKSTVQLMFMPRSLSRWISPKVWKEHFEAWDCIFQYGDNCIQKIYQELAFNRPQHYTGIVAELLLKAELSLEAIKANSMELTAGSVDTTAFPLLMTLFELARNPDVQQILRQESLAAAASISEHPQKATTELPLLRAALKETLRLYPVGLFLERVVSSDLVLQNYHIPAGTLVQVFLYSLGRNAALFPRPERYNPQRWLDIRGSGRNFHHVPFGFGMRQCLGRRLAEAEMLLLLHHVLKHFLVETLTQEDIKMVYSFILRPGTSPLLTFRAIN
- experimental_protocol: Inhibitory effect on hCYP11B2: aldosterone production in mitochondrial fraction of V79 cells stably expressing human CYP11B2, HTRF
- measurement_parameters: 0.5 μmol/L deoxycorticosterone, 150 μmol/L NADPH, 1.5-2 hours at room temperature
measurement_type: IC50 (nM)

molecule: CS(=O)(=O)N1CCC(CNC(=O)CN2CCN(c3cc(-c4ccc(F)cc4)cnn3)CC2)CC1 [Example 62]
measurement_type: IC50
value_measured: 11
//
molecule: CC(C)(C)OC(=O)N1CC[C@@H](NC(=O)CN2CCN(c3cc(-c4ccc(F)cc4)cnn3)CC2)[C@H](F)C1 [Example 88]
measurement_type: IC50
value_measured: 7.8

[1] CN(C)[C@H]1CC[C@@H](NC(=O)CN2CCN(c3cc(-c4c(F)cccc4F)cnn3)CC2)CC1 [Example 67]
[2] CN(C)[C@H]1CC[C@H](NC(=O)CN2CCN(c3cc(-c4ccc(Cl)cc4)cnn3)CC2)CC1 [Example 80]
I'm curious, which of these has a smaller IC50 number: 1 or 2 ? // output: label of the selected item 2
(2: 17 nM, 1: 41 nM)

* * *

- assayed_system: human CYP11B2 (Homo sapiens, UniProt P19099)
- Construct: mitochondrial fraction
- Sequence (P19099 25-503): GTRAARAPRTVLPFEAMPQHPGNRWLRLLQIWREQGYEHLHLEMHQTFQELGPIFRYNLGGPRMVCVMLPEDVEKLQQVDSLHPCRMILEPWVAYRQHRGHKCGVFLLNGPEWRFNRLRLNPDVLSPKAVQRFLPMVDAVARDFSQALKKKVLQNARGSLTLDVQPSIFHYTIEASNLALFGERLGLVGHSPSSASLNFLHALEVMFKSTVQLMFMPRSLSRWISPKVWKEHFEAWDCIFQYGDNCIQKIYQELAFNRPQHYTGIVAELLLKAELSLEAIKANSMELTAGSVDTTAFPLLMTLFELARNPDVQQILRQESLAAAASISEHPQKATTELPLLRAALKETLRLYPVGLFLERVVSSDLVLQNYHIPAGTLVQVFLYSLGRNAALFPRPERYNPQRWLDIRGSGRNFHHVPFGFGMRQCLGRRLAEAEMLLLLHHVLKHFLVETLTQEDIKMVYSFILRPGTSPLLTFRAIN
- experimental_protocol: Inhibitory effect on hCYP11B2: aldosterone production in mitochondrial fraction of V79 cells stably expressing human CYP11B2, HTRF
- measurement_parameters: 0.5 μmol/L deoxycorticosterone, 150 μmol/L NADPH, 1.5-2 hours at room temperature
measurement_type: IC50 (µM)

Answered examples (3):
compound: Cc1ccccc1-c1cnnc(N2CCN(CC(=O)N[C@H]3CC[C@H](N4CCOCC4)CC3)CC2)c1
assayed_system: human CYP11B2 (Homo sapiens, UniProt P19099)
readout_units: µM
IC50: 0.016
--
compound: O=C(CN1CCN(c2cc(-c3ccc(Cl)cc3)cnn2)CC1)NC1CCNCC1O (single isomer, unassigned) [Example 90a]
assayed_system: human CYP11B2 (Homo sapiens, UniProt P19099)
readout_units: µM
IC50: 0.033
--
compound: CC(C)NC(=O)CN1CCN(c2cc(-c3ccc(C(F)(F)F)cc3)cnn2)CC1
assayed_system: human CYP11B2 (Homo sapiens, UniProt P19099)
readout_units: µM
IC50: 0.018

[I] CC1CC=C(c2cncc(N3CCN(CC(=O)NC(C)C)CC3)c2)CC1 (centres unmarked)
[II] Cn1ncc2ccc(-c3cncc(N4CCN(CC(=O)NN5CCCC5)CC4)n3)cc21
[III] CN1CCC(NC(=O)CN2CCN(c3cc(-c4ccc(Cl)cc4)cnn3)CC2)CC1=O (single isomer, unassigned) [Example 91a]
[IV] CC(C)[C@@H](CO)NC(=O)CN1CCN(c2cncc(-c3ccc(Cl)cc3)n2)CC1
Output the entries ranked by IC50 from maximum down to minimum. Note for the reader: the ranking is given by listing the labels in the order requested. III, II, I, IV
(III: 0.03 µM, II: 0.016 µM, I: 0.0069 µM, IV: 0.0043 µM)

* * *

- assayed_system: human CYP11B2 (Homo sapiens, UniProt P19099)
- Construct: mitochondrial fraction
- experimental_protocol: Inhibitory effect on hCYP11B2: aldosterone production in mitochondrial fraction of V79 cells stably expressing human CYP11B2, HTRF
- measurement_parameters: 0.5 μmol/L deoxycorticosterone, 150 μmol/L NADPH, 1.5-2 hours at room temperature
pIC50: −log10 of the molar value.
measurement_type: pIC50

compound: CC(C)NC(=O)CN1CCN(c2cncc(-c3ccc4cnn(C)c4c3)n2)CC1 [Example 49]
measurement_type: pIC50
value_measured: 8.12

compound: CC(C)NC(=O)CN1CCN(c2cncc(-c3ccc(C#N)nc3)n2)CC1 [Example 53]
measurement_type: pIC50
value_measured: 7.60

[A] C[C@@H]1CN(c2cncc(-c3ccc(C(F)(F)F)cc3)n2)CCN1CC(=O)N[C@H]1CCC[C@H]1O [Example 46]
[B] O=C(CN1CCN(c2cncc(-c3ccc(F)cc3)n2)CC1)N[C@H]1CC[C@@H](N2CCOCC2)CC1 [Example 32]
Would you mind telling me which has the lower recorded pIC50 between A and B ? # answer = label of selected item A
(A: 7.59, B: 8.02)

* * *

- assayed_system: human CYP11B2 (Homo sapiens, UniProt P19099)
- Construct: mitochondrial fraction
- Sequence (P19099 25-503): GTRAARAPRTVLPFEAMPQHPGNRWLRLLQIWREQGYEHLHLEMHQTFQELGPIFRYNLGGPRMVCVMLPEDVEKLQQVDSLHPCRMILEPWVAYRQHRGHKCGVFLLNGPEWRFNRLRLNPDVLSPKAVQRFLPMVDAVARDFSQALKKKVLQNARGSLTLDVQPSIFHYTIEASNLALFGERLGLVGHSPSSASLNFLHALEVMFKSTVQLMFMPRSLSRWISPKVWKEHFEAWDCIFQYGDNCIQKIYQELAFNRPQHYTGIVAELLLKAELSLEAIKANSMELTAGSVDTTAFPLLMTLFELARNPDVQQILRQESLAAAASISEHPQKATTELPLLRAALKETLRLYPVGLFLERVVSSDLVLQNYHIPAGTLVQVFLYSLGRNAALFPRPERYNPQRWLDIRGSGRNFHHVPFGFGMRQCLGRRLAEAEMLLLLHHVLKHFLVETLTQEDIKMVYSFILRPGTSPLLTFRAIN
- experimental_protocol: Inhibitory effect on hCYP11B2: aldosterone production in mitochondrial fraction of V79 cells stably expressing human CYP11B2, HTRF
- measurement_parameters: 0.5 μmol/L deoxycorticosterone, 150 μmol/L NADPH, 1.5-2 hours at room temperature
measurement_type: IC50 (nM)

[1] Cc1ccccc1-c1cnnc(N2CCN(CC(=O)Nc3cccnc3)CC2)c1 [Example 61]
[2] CC(C)NC(=O)CN1CCN(c2cncc(-c3ccc4c(cnn4C)c3)n2)CC1 [Example 50]
Which record would sort first by descending IC50, 1 or 2 ? Lab log: write the label of the selected item as the result. 2
(2: 48 nM, 1: 2.5 nM)

[A] CNC(=O)COC1CCC(NC(=O)CN2CCN(c3cc(-c4ccc(F)cc4)cnn3)CC2)CC1 (centres unmarked) [Example 66]
[B] CC(C)NC(=O)CN1CCN(c2cncc(-c3ccc4cn[nH]c4c3)n2)CC1 [Example 56]
[C] CC(C)NC(=O)CN1CCN(c2cc(-c3ccc(C#N)nc3)cnn2)CC1 [Example 83]
[D] CN(C)[C@H]1CC[C@H](NC(=O)CN2CCN(c3cncc(-c4ccc(F)cc4)n3)CC2)CC1 [Example 31]
[E] Cc1ccc(-c2cnnc(N3CCN(CC(=O)NC[C@H]4CN(C)CCO4)CC3)c2)cc1 [Example 60]
Order by IC50, ascending. Returns: the labels arranged in the requested order. D, A, E, B, C
(D: 5.1 nM, A: 9.6 nM, E: 18 nM, B: 38 nM, C: 102 nM)

Entry source: patent US10717731B2
